experimentalTarget: Nuclear receptor subfamily 1 group I member 2 (Rattus norvegicus)
testDescription: qHTS assay for small molecule activators of the rat pregnane X receptor (rPXR) signaling pathway (AID 651751); further: 0% is about no effect
testConditions: rPXR reporter cells, luciferase (One-Glo), 24 h
Overview of reported max response across a group of molecules:
Give the quantity in %, number only.

Answered cases to consult:
CC(=O)CC(=O)Nc1ccc(C)cc1C :: -1.86
CCCCCCCCCCCCCCC(=O)OC :: -2.84
CS(=O)(=O)c1ccc(Cl)cc1 :: 3.76
C=C[Si](C)(C)O[Si](C)(C)C=C :: 0.719
CC(C)c1cccc(C(C)C)c1 :: -1.81
CCc1c(C(=O)O)c(=O)cnn1-c1ccc(Cl)cc1 :: -1.29
C=Cc1ccccc1Br :: -0.877

Sample CCCCCCCC[Si](OCC)(OCC)OCC ; max response observed: 6.41
